# Lookup of reported pKi keyed by entry
# target.desc: Leishmania donovani
# procedure.text: Apparent kinetic activity measured for protein carboxyl methyltransferase in Leishmania donovani promastigotes
When answering, recall that pKi equals minus log10 of the concentration in mol/L, and write that number alone.

Examples with their reported pKi follow.
- compound: "Nc1ncnc2c1ncn2[C@@H]1O[C@H](CC(N)CCCC(=O)O)[C@@H](O)[C@H]1O (stereo in doubt; 3a)"
  pKi: 3.78
- compound: "NCCC(CN)C[C@H]1OC(n2cnc3c(N)ncnc32)[C@H](O)[C@@H]1O (stereo partly drawn)"
  pKi: 2.95
- compound: "Nc1ncnc2c1ncn2[C@@H]1O[C@H](CC2CCNC2)[C@@H](O)[C@H]1O (stereo in doubt; 6a)"
  pKi: 3.99
- compound: "Nc1ncnc2c1ncn2[C@@H]1O[C@H](CSCC[C@H](N)C(=O)O)[C@@H](O)[C@H]1O"
  pKi: 5.14
- compound: "C=CCCCC(N)C[C@H]1OC(n2cnc3c(N)ncnc32)[C@H](O)[C@@H]1O (stereo partly drawn)"
  pKi: 3.06

Lab note: Nc1ncnc2c1ncn2[C@@H]1O[C@H](CC2CCNC2)[C@@H](O)[C@H]1O (stereo in doubt; 6b) gave pKi of 3.85

Lab note: Nc1ncnc2c1ncn2[C@@H]1O[C@H](CC(N)CCCC(=O)O)[C@@H](O)[C@H]1O (stereo in doubt; 3b) gave pKi of 3.42

Lab note: Nc1ncnc2c1ncn2[C@@H]1O[C@H](CC(N)CCCC(O)CO)[C@@H](O)[C@H]1O (stereo partly drawn) gave pKi of 3.35
